- targetOrSystem: […]F508-CFTR (Homo sapiens, UniProt P13569, DEL508-508)
- Construct: expressed in transfected cells
- Sequence (P13569 with tags, fused parts or gaps DEL508-508): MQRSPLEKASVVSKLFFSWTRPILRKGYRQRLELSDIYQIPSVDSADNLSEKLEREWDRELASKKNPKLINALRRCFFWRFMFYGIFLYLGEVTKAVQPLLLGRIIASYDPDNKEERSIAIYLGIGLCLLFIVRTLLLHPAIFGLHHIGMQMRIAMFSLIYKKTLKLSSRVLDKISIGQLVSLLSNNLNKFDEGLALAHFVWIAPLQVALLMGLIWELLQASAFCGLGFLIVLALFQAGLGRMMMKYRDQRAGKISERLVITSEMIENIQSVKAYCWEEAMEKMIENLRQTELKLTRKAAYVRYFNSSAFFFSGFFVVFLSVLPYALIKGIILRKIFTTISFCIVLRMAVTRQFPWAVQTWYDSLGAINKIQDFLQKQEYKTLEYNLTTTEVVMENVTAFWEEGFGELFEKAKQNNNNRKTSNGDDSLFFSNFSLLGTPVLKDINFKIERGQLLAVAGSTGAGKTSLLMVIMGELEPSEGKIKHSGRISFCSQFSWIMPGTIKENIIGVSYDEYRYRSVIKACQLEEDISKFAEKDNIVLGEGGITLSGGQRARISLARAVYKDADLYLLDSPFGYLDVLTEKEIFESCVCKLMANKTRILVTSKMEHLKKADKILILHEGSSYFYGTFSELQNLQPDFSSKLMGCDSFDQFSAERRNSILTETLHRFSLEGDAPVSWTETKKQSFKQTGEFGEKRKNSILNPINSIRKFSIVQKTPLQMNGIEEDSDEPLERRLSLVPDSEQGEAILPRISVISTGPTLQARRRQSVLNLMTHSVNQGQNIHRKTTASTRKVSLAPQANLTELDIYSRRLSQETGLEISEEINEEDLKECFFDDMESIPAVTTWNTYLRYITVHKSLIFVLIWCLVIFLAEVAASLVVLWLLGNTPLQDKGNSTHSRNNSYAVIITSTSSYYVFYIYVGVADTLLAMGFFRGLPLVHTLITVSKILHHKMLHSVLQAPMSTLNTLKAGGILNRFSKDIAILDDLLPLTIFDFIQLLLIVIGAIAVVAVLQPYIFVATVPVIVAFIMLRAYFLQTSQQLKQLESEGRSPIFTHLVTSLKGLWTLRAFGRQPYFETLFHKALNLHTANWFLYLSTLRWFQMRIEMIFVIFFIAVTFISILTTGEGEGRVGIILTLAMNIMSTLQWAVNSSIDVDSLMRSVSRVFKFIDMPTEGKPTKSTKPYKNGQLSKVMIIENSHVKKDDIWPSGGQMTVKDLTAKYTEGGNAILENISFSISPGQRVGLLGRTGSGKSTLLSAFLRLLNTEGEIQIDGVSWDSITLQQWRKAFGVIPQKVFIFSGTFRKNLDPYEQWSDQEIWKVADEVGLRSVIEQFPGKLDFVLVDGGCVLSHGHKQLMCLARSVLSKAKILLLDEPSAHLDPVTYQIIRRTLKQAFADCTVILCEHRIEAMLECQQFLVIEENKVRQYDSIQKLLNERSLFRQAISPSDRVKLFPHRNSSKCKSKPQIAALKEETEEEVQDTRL
- measurementDescription: Assay results of Table 3: ΔF508-CFTR modulation, membrane potential optical assay (assay format not stated)
- Format: cell-based
- testSettings: potency range; NIH3T3 mouse fibroblasts stably expressing […]F508-CFTR (optical assays)
Listed below: EC50 values for each entry.

compound	targetOrSystem	EC50
NC(=O)c1cc(-c2ccccc2)nc(N2CC=CC2)n1 [Compound 79]	[…]F508-CFTR (Homo sapiens, UniProt P13569, DEL508-508)	1 to 5 µM
CCN(CC)c1nc(C(N)=O)cc(-c2cccc(NC(C)=O)c2)n1 [Compound 62]	[…]F508-CFTR (Homo sapiens, UniProt P13569, DEL508-508)	> 5 µM
CCOc1ccccc1-c1cc(C(N)=O)nc(N(CC)CC)n1 [Compound 5]	[…]F508-CFTR (Homo sapiens, UniProt P13569, DEL508-508)	< 1 µM
NC(=O)c1cc(-c2ccccc2)nc(NCc2ccccc2)n1 [Compound 126]	[…]F508-CFTR (Homo sapiens, UniProt P13569, DEL508-508)	> 5 µM
NC(=O)c1cc(-c2ccccc2C(F)(F)F)nc(N2CCCCC2)n1 [Compound 72]	[…]F508-CFTR (Homo sapiens, UniProt P13569, DEL508-508)	1 to 5 µM
